The following molecules are shown together with reported microsomal CLint values.
assay-explanation: Intrinsic clearance in human liver microsomes assessed per mg of protein
Type: ADME, Microsome
Record the value in µL/min/mg, omitting the unit from your answer.

O=C(NC[C@@H]1CCCO1)c1ccc(CN(Cc2ccccc2)S(=O)(=O)c2ccc(Cl)cc2)cc1 = 490
O=C(NCC1CC1)c1ccc(CN(Cc2ccccn2)S(=O)(=O)c2ccc(Cl)cc2)cc1 = 265
O=C(NCc1cccc(Cl)c1)c1ccc(CN(Cc2ccccn2)S(=O)(=O)c2ccc(Cl)cc2)cc1 = 583

# next molecule below
IN: If you can, please state the reported microsomal CLint value of O=C(NC1(c2ccccc2)CC1)c1ccc(CN(Cc2ccccn2)S(=O)(=O)c2ccc(Cl)cc2)cc1 .
OUT: 257

====

assay-explanation: Clearance in mouse at 0.2 mg/kg, iv
Assay type: ADME, organism-based
Set-up: dose 0.2 mg/kg, route intravenous
assay-conditions: in vivo
endpoint: clearance (mL/min/kg)
Record the value in mL/min/kg, omitting the unit from your answer.

IN: If you can, please state the reported clearance value of N#Cc1ccc(S(=O)(=O)N(Cc2ccc(-c3nnn[nH]3)c(F)c2)Cc2ccccc2F)cc1 .
OUT: 28.3

====

assay-explanation: Intrinsic clearance in rat liver microsomes assessed per mg of protein
Type: ADME, Microsome
endpoint: log10(microsomal CLint) (log10 of the value in µL/min/mg)
Reminder: these figures are log10 of reported microsomal CLint, in µL/min/mg before transformation.

O=C(O)c1ccc(CN(Cc2ccccc2)S(=O)(=O)c2ccc(Cl)cc2)cc1 = 1.30
O=S(=O)(c1ccc(Cl)cc1)N(Cc1ccc(-c2nnn[nH]2)cc1)Cc1ccccn1 = 1.40
O=S(=O)(c1ccc(Cl)cc1)N(Cc1ccc(-c2nnn[nH]2)c(F)c1)Cc1ccccc1F = 1.85
CC(=O)Nc1cccc(/C(C)=N\NC(=O)c2ccc(CN(Cc3ccccc3)S(=O)(=O)c3ccc(Cl)cc3)cc2)c1 = 2.34
N#Cc1ccc(S(=O)(=O)N(Cc2ccc(C(=O)NC3(c4ccccc4)CC3)cc2)Cc2ccccn2)cc1 = 2.68
O=C(NC[C@@H]1CCCO1)c1ccc(CN(Cc2ccccc2)S(=O)(=O)c2ccc(Cl)cc2)cc1 = 3.23

IN: If you can, please state the reported log10(microsomal CLint) value of N#Cc1ccc(S(=O)(=O)N(Cc2ccc(-c3nnn[nH]3)cc2)Cc2ccccc2F)cc1 .
OUT: 1.83

IN: If you can, please state the reported log10(microsomal CLint) value of O=C(NC1(c2ccccc2)CC1)c1ccc(CN(Cc2ccccc2)S(=O)(=O)c2ccc(Cl)cc2)cc1 .
OUT: 2.71

IN: If you can, please state the reported log10(microsomal CLint) value of O=C(NC1(c2ccccc2)CC1)c1ccc(CN(Cc2ccccn2)S(=O)(=O)c2ccc(Cl)cc2)cc1 .
OUT: 3.10

IN: If you can, please state the reported log10(microsomal CLint) value of O=C(NCC1CC1)c1ccc(CN(Cc2ccccn2)S(=O)(=O)c2ccc(Cl)cc2)cc1 .
OUT: 2.73

IN: If you can, please state the reported log10(microsomal CLint) value of O=C(NCc1cccc(Cl)c1)c1ccc(CN(Cc2ccccn2)S(=O)(=O)c2ccc(Cl)cc2)cc1 .
OUT: 3.08

====

assay-explanation: Nephelometric kinetic solubility in PBS
Assay type: physicochemical
endpoint: solubility kinetic (µM)
Record the value in µM, omitting the unit from your answer.

IN: If you can, please state the reported solubility kinetic value of CC(=O)Nc1cccc(/C(C)=N\NC(=O)c2ccc(CN(Cc3ccccc3)S(=O)(=O)c3ccc(Cl)cc3)cc2)c1 .
OUT: 11.9

====

assay-explanation: Lipophilicity, log P of the compound
Type: physicochemical
assay-conditions: octanol/water
endpoint: logP
Write the value as a bare number.

IN: If you can, please state the reported logP value of CC(=O)Nc1cccc(/C(C)=N\NC(=O)c2ccc(CN(Cc3ccccc3)S(=O)(=O)c3ccc(Cl)cc3)cc2)c1 .
OUT: 4.8

====

test-system: C-X-C chemokine receptor type 3 (Homo sapiens, UniProt P49682)
Sequence (P49682 whole entry): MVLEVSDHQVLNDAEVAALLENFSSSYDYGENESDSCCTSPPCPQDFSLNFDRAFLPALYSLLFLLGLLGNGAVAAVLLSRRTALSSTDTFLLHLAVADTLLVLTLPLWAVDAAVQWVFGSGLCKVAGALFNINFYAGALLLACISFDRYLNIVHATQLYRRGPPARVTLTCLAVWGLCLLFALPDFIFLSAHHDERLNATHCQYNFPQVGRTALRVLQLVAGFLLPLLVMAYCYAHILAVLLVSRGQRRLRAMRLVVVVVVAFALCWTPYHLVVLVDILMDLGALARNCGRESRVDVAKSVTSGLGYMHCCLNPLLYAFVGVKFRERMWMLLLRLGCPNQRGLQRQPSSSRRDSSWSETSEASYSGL
assay-explanation: Displacement of labeled ITAC from CXCR3
endpoint: pKi
The scale used: pKi is minus the common logarithm of the concentration in molar units.

IN: GET /values?readout=pKi&system=C-X-C chemokine receptor type 3 (Homo sapiens, UniProt P49682)&item= CC(=O)Nc1cccc(/C(C)=N\NC(=O)c2ccc(CN(Cc3ccccc3)S(=O)(=O)c3ccc(Cl)cc3)cc2)c1
OUT: 6.68

====

assay-explanation: Aqueous solubility at pH 7.4
Assay type: physicochemical
assay-conditions: buffer
The following molecules are shown together with reported solubility values.

IN: If you can, please state the reported solubility value of COc1ccc(S(=O)(=O)N(Cc2ccc(C(=O)NCC3CC3)cc2)Cc2cccnc2)cc1 .
OUT: < 10 µM

IN: If you can, please state the reported solubility value of O=S(=O)(c1ccc(Cl)cc1)N(Cc1ccc(-c2nnn[nH]2)cc1)Cc1ccccn1 .
OUT: > 100 µM

IN: If you can, please state the reported solubility value of O=C(NCCc1cccc([N+](=O)[O-])c1)c1ccc(CN(Cc2ccccc2)S(=O)(=O)c2ccc(Cl)cc2)cc1 .
OUT: < 10 µM

IN: If you can, please state the reported solubility value of O=C(NCC1CC1)c1ccc(CN(Cc2ccccc2)S(=O)(=O)c2ccc(OC(F)(F)F)cc2)cc1 .
OUT: < 10 µM

IN: If you can, please state the reported solubility value of CCOc1ccc(S(=O)(=O)N(Cc2ccc(-c3nnn[nH]3)cc2)Cc2ccccn2)cc1 .
OUT: > 100 µM

IN: If you can, please state the reported solubility value of O=C(NCC1CC1)c1ccc(CN(Cc2cccc(Cl)c2)S(=O)(=O)c2ccc(Cl)cc2)cc1 .
OUT: < 10 µM

IN: If you can, please state the reported solubility value of N#Cc1ccc(S(=O)(=O)N(Cc2ccc(-c3nnn[nH]3)cc2)Cc2ccccc2F)cc1 .
OUT: > 100 µM

IN: If you can, please state the reported solubility value of N#Cc1ccc(S(=O)(=O)N(Cc2ccc(C(=O)NC3(c4ccccc4)CC3)cc2)Cc2ccccn2)cc1 .
OUT: < 10 µM

IN: If you can, please state the reported solubility value of O=S(=O)(c1ccc(Cl)cc1)N(Cc1ccc(Cl)cc1)Cc1ccc(-c2nnn[nH]2)cc1 .
OUT: > 100 µM

====

assay-explanation: Aqueous solubility at pH 7.4
Format: physicochemical
assay-conditions: buffer
The following molecules are shown together with reported solubility values.

Previously resolved entries follow.
O=C(NCc1cccc(Cl)c1)c1ccc(CN(Cc2ccccn2)S(=O)(=O)c2ccc(Cl)cc2)cc1 = < 10 µM
N#Cc1ccc(S(=O)(=O)N(Cc2ccc(C(=O)NCC3CC3)cc2)Cc2ccccn2)cc1 = < 10 µM
CCOc1ccc(S(=O)(=O)N(Cc2ccccc2)Cc2ccc(C(=O)NCC3CC3)cc2)cc1 = < 10 µM
O=C(NCC1CC1)c1ccc(CN(Cc2ccccc2)S(=O)(=O)c2ccc(Cl)cc2)cc1 = < 10 µM
N#Cc1ccc(S(=O)(=O)N(Cc2ccc(-c3nnn[nH]3)c(F)c2)Cc2ccccc2F)cc1 = > 100 µM

IN: If you can, please state the reported solubility value of COc1ccc(CN(Cc2ccc(-c3nnn[nH]3)cc2)S(=O)(=O)c2ccc(Cl)cc2)cc1 .
OUT: > 100 µM

====

test-system: C-X-C chemokine receptor type 3 (Homo sapiens, UniProt P49682)
assay-explanation: Displacement of labeled IP10 from CXCR3
endpoint: Ki (nM)
Record the value in nM, omitting the unit from your answer.

IN: GET /values?readout=Ki&system=C-X-C chemokine receptor type 3 (Homo sapiens, UniProt P49682)&item= CC(=O)Nc1cccc(/C(C)=N\NC(=O)c2ccc(CN(Cc3ccccc3)S(=O)(=O)c3ccc(Cl)cc3)cc2)c1
OUT: 348

====

The following compounds are shown together with reported solubility values.
assay-explanation: Aqueous solubility at pH 7.4
Assay type: physicochemical
assay-conditions: buffer

Previously resolved entries follow.
O=S(=O)(c1ccc(Cl)cc1)N(Cc1ccc(-c2nnn[nH]2)cc1)Cc1ccccc1F = > 100 µM
O=S(=O)(c1ccc(Cl)cc1)N(CCc1cc2ccccc2cn1)Cc1ccc(-c2nnn[nH]2)cc1 = > 100 µM
O=C(NCc1cccs1)c1ccc(CN(Cc2ccccc2)S(=O)(=O)c2ccc(Cl)cc2)cc1 = < 10 µM
O=S(=O)(c1ccc(Cl)cc1)N(Cc1ccc(F)cc1)Cc1ccc(-c2nnn[nH]2)cc1 = > 100 µM
COc1ccc(S(=O)(=O)N(Cc2ccccc2)Cc2ccc(C(=O)NCc3ccccc3)cc2)cc1 = < 10 µM

IN: If you can, please state the reported solubility value of O=C(NC1(c2ccccc2)CC1)c1ccc(CN(Cc2ccccc2)S(=O)(=O)c2ccc(Cl)cc2)cc1 .
OUT: < 10 µM

IN: If you can, please state the reported solubility value of O=S(=O)(c1ccc(Cl)cc1)N(Cc1ccc(-c2nnn[nH]2)c(F)c1)Cc1ccccc1F .
OUT: > 100 µM

IN: If you can, please state the reported solubility value of O=C(NCc1cccc(Cl)c1)c1ccc(CN(Cc2ccccc2)S(=O)(=O)c2ccc(Cl)cc2)cc1 .
OUT: < 10 µM

IN: If you can, please state the reported solubility value of COc1cccc(CN(Cc2ccc(-c3nnn[nH]3)cc2)S(=O)(=O)c2ccc(Cl)cc2)c1 .
OUT: > 100 µM
